Attribution: ChEMBL document CHEMBL1765014

- system: Substance-P receptor (Homo sapiens, UniProt P25103)
- Sequence (P25103 whole entry): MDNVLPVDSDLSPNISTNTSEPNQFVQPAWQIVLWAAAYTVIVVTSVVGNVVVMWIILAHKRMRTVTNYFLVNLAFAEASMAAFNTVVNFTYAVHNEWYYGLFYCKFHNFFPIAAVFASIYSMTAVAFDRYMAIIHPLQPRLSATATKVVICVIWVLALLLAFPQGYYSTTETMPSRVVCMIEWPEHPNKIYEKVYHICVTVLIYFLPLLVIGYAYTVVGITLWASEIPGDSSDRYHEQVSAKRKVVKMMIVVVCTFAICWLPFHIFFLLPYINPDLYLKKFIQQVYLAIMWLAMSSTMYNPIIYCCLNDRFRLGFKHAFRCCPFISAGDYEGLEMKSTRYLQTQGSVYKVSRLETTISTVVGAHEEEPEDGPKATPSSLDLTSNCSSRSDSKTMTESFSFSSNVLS
- test.description: Displacement of [125I]BH-SP from human recombinant NK1 receptor expressed in CHO cells after 90 mins
pIC50: −log10 of the molar value.
measurement.kind: pIC50

Worked examples, 4 compounds total:
Memo: CN(Cc1cc(C(F)(F)F)cc(C(F)(F)F)c1)C(=O)c1cnc2ccccc2c1-c1ccccc1 , reported pIC50: 7.04

Memo: Cc1cc(-c2ccccc2)c(C(=O)NCc2cc(C(F)(F)F)cc(C(F)(F)F)c2)c(C)n1 , reported pIC50: 6.36

Memo: CN(Cc1cc(C(F)(F)F)cc(C(F)(F)F)c1)C(=O)c1c(-c2ccccc2)ccnc1CCl , reported pIC50: 7.28

Memo: Cc1c(C(=O)NCc2cc(C(F)(F)F)cc(C(F)(F)F)c2)c(-c2ccccc2)cc[n+]1[O-] , reported pIC50: 6.47

1. O=C(NCc1cc(C(F)(F)F)cc(C(F)(F)F)c1)c1cnc2ccccc2c1-c1ccccc1
2. Cc1c(C(=O)N(C)Cc2cc(C(F)(F)F)cc(C(F)(F)F)c2)c(-c2ccccc2)cc2nncn12
**Query** Sort 1 and 2 by pIC50 descending and give the first. When you have decided, please share the label of that item.
**Result** 2

P. O=C(NCc1cc(C(F)(F)F)cc(C(F)(F)F)c1)c1c(-c2ccccc2)ccnc1CCl
Q. Cc1c(C(=O)NCc2cc(C(F)(F)F)cc(C(F)(F)F)c2)c(-c2ccccc2)cc2nncn12
R. Cc1c(C(=O)N(C)Cc2cc(C(F)(F)F)cc(C(F)(F)F)c2)c(-c2ccccc2)cc2nnnn12
**Query** Please produce an ascending ranking of these compounds based on pIC50. Sort and list the labels as requested.
**Result** Q, P, R
(Q: 6.16, P: 6.63, R: 7.24)
